Target: human CCR5 (Homo sapiens, UniProt P51681)
Sequence (P51681 whole entry): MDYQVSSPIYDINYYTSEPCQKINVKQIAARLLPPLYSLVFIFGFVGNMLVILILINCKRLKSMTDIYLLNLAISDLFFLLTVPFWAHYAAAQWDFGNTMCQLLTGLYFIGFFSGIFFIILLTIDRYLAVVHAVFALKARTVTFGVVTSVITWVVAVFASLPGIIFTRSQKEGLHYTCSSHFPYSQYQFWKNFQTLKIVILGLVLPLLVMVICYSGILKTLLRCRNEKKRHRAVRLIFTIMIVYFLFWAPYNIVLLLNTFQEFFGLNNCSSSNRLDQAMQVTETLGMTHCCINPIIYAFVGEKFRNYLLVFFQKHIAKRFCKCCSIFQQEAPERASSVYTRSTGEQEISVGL
Test: Inhibition test on the binding of RANTES to CCR5 (RANTES-induced transient increase of Ca ion in CCR5/CHO cells)
Settings: human CCR5 stably over-expressing CHO cells; 10 nM recombinant human RANTES; Ca2+ transient increase (Fura-2AM)
Counter-ions that a name gives are not always drawn.
attribute-measured: IC50 (µM)
State the answer as a number, implicitly in µM.

Asked: GET /values?readout=IC50&item= CCCCN1C(=O)[C@@H]2CSCN2C(=O)C12CCN(Cc1ccc(Oc3ccccc3)cc1)CC2 [Example 1(1), hydrochloride]
Given back: 0.74

Asked: GET /values?readout=IC50&item= CCCCN1C(=O)C2(CCCC2)NC(=O)C12CCN(Cc1ccc(Oc3ccc(C(=O)NC)cc3)cc1)CC2 [Example 5, hydrochloride]
Given back: 0.012
